Where these numbers come from: ChEMBL document CHEMBL1201862

- Tested on: HCC 2998
- protocol-details: NCI tumour cell line growth inhibition, 48 h
Calls of active or inactive are those of the source. Rule as the data show it: active = GI50 up to about 1.1 µM and inactive = higher.
Overview of recorded GI50 for various compounds
assay-readout: GI50

compound	obs-value
O=c1c(Cl)nsnc1Cl	19.4 µM (inactive)
O=C(O)c1ccc(Cc2ccccc2C(=O)O)cc1	> 100 µM (inactive)
c1ccc2c(c1)SCCCSCCSCCCS2	> 100 µM (inactive)
CC(NC(=O)C(C)NC(=O)C(N)CCP(C)(=O)O)C(=O)O (stereo not drawn)	> 100 µM (inactive)
Nc1cc(N2CCOCC2)nc(=O)n1-c1ccc(Cl)cc1	> 100 µM (inactive)
COc1ccc2c3c1OC1C(F)C=CC4(O)C(C2)NCCC314 (stereo not drawn)	3.18 µM (inactive)
Nc1ncnc2c1ncn2C(=O)NC12CC3CC(CC(C3)C1)C2	> 100 µM (inactive)
CCCCCCCCCCCCCCCCCCOP1(=O)OCCO1	47.2 µM (inactive)
CC(=O)OCC1OC(N2C(=O)NC(=O)C3C=C4CCCCC4=CC32)C(OC(C)=O)C1OC(C)=O (stereo not drawn)	> 100 µM (inactive)
CC12CP(=O)(c3ccccc3)CC1c1ccccc1C2c1ccccc1 (stereo not drawn)	17.7 µM (inactive)
O=C(Cn1cc(I)c(C(=O)NCC(O)CO)n1)NCC(O)CO (stereo not drawn)	> 100 µM (inactive)
COc1ccc(N[C@H]([C@@H](c2ccccc2)[S+]([O-])c2ccc(C)cc2)C(F)(F)F)cc1 (stereo partly drawn)	> 100 µM (inactive)
CC1(C)[C@@H]2CC[C@]1(C)[C@H](OC(=O)/C=C/c1ccccc1)C2	17 µM (inactive)
Cc1cc2c(c(C#N)c1C)NC(=O)C(CC(=O)O)C2=O (stereo not drawn)	> 100 µM (inactive)
Cc1ccc([C@@H]2[C@@H](C(=O)c3ccccn3)[C@H](c3ccc(C)cc3)C[C@](O)(c3ccccn3)[C@H]2C(=O)c2ccccn2)cc1	7.35 µM (inactive)
CCCC(=O)C1=C(O)C(Cc2c(O)c(C)c(O)c(C(=O)CCC)c2O)=C(O)C(C)(C)C1=O	10.9 µM (inactive)
Cn1c(=O)cc(Nc2ccc(N)cc2)[nH]c1=O	> 100 µM (inactive)
O=C1CCCC(=O)N1CCc1c[nH]c2ccccc12	> 100 µM (inactive)
COc1ccccc1Cc1ccc(C2C=CC3(CC(=O)C=C3C)C(=O)C2)o1 (stereo not drawn)	28.1 µM (inactive)
COC(=O)CCC(NC(=S)N/N=C/c1ccccn1)C(=O)OC (stereo not drawn)	> 100 µM (inactive)
O=C1Oc2ccccc2C(=O)/C1=C\Nc1nc(-c2ccccc2)cs1	51.4 µM (inactive)
CN1c2ccccc2N(C)C2C1N(C)c1ccccc1N2C (stereo not drawn)	9.73 µM (inactive)
COc1cc2c(cc1OC)/C(=C\c1ccccc1N)C(=O)OC2	23.3 µM (inactive)
O=C(NC(Cc1ccc(I)cc1)C(=O)O)c1ccc(I)cc1 (stereo not drawn)	> 41.7 µM (inactive)
CNC(=O)c1ccc(C(=O)NCCCCCN(O)C(=O)CCC(=O)NCCCCCN(O)C(=O)CCC(=O)NCCCCCN(O)C(C)=O)c(O)c1O	> 100 µM (inactive)
CCC(Nc1ncnc2nc[nH]c12)C(=O)O (stereo not drawn)	> 100 µM (inactive)
C/C(=N\NC(=O)c1ccccc1O)c1c(O)cc(C)oc1=O	92 µM (inactive)
C/C=C(\NC(=O)C(CCCCN)NC(=O)C(C)NC(=O)C1CSC(C)C(NC(=O)C2CSCC(NC(=O)C(C)NC(=O)C(N)C(C)CC)C(=O)NC(CCCCN)C(=O)NC(Cc3ccccc3)C(=O)NC(CC(C)C)C(=O)N2)C(=O)N2CCCC2C(=O)NCC(=O)N1)C(=O)NCC(=O)NC1CSCC2NC(=O)C(Cc3ccc(O)cc3)NC(=O)C(CSC=CNC2=O)NC(=O)C(CC(N)=O)NC(=O)C(Cc2ccccc2)NC1=O (stereo not drawn)	> 100 µM (inactive)
NC1(c2cc3ccccc3s2)CCCCCC1	1.98 µM (inactive)
CCOC(=O)CCSS(=O)(=O)C(F)(F)F	> 100 µM (inactive)
COc1ccc(/C=C2\CCNC2=O)cc1	> 48.5 µM (inactive)
CCc1cccc(C)c1N1C(=O)C(=O)C(c2nc3ccccc3o2)C(=O)C1=O	> 100 µM (inactive)
Cn1cnc([N+](=O)[O-])c1Sc1nnc(-c2cccnc2)n1C	30.9 µM (inactive)
O=C(O)C1Cc2ccccc2OC1=O (stereo not drawn)	> 100 µM (inactive)
CCOC(=O)CCSc1nc2ccc(I)cc2c(=O)n1Cc1ccccc1	26.5 µM (inactive)
C[N+]1(C)C/C(=C\C=C\c2ccccc2)C(=O)/C(=C/C=C/c2ccccc2)C1	8.55 µM (inactive)
O=C(/C=C/c1ccccc1)CSc1nc2ccc(I)cc2c(=O)n1Cc1ccccc1	19.3 µM (inactive)
COC(=O)NN1C(C)=C(C(=O)OC)C2(CCOC2=O)C1(C)O (stereo not drawn)	> 100 µM (inactive)
